- MEASUREMENT TARGET: HCoV-OC43 N233-300 (central linker) (Human coronavirus OC43, UniProt P33469 233-300)
- Sequence (P33469 233-300): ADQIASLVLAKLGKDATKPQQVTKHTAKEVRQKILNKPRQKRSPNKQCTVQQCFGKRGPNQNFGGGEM
- ASSAY TEXT: SPR
MEASURED PARAMETER: pKd
Expect pKd as a plain number equal to -log10 of the molar concentration.

Incoming: Look up pKd for this binder: UCUAAACUCUAAACUCUAAACUCUAAAC (ssRNA) [(UCUAAAC)4 intergenic repeat RNA]
Outgoing: 7.19
